targetUnderTest: UniProtKB P08482
testMethodNotes: In vitro binding affinity against Muscarinic acetylcholine receptor M1 from rat hippocampus, using [3H]oxotremorine-M (Oxo-M) as radioligand.
Type: tissue-based
testConditions: in the assay text read “cerebral cortex” for “hippocampus”
pIC50: −log10 of the molar value.
endpointLabel: pIC50

Take a look at these entries with their results.
{"cpdSmiles": "CCCCCCSc1nsnc1C1=CCCN(C)C1.O=C(O)C(=O)O", "valueMeasured": 8.19}
{"cpdSmiles": "CCCCCCCCSc1nsnc1C1=CCCN(C)C1.O=C(O)C(=O)O", "valueMeasured": 6.85}
{"cpdSmiles": "CCCc1nsnc1C1=CCCN(C)C1.O=C(O)C(=O)O", "valueMeasured": 7.10}

(1) CCCCCCCCc1nsnc1C1=CCCN(C)C1.O=C(O)C(=O)O
(2) CCCCCc1nsnc1C1=CCCN(C)C1.O=C(O)C(=O)O
Which value of pIC50 is greater, the one for 1 or the one for 2 ? Write the label of whichever entry you select.
2

---

targetUnderTest: Muscarinic acetylcholine receptor M1 (Rattus norvegicus)
testMethodNotes: In vitro binding affinity against muscarinic acetylcholine receptor M1 from rat cerebral cortex, using [3H]oxotremorine-M (Oxo-M) as radioligand
endpointLabel: IC50 (nM)

{"compound": "CCCCOc1nonc1C1=CCCN(C)C1", "readingUnit": "nM", "IC50": 24}
{"compound": "CCCC(C)COc1nsnc1C1=CCCN(C)C1.O=C(O)/C=C/C(=O)O (stereo not given)", "readingUnit": "nM", "IC50": 13}
{"compound": "CSc1nsnc1C1=CCCN(C)C1.O=C(O)C(=O)O", "readingUnit": "nM", "IC50": 2.3}

(a) CCOc1nsnc1C1=CCCN(C)C1.O=C(O)C(=O)O
(b) CCCCCCCCOc1nsnc1C1=CCCN(C)C1.O=C(O)C(=O)O
Hey, which is lower on measured IC50, a or b ? In your reply, give the label of the chosen option.
a

(P) CCSc1nsnc1C1=CCCN(C)C1.O=C(O)C(=O)O
(Q) CC(C)CCCOc1nsnc1C1=CCCN(C)C1.O=C(O)/C=C\C(=O)O
I'm curious whether P or Q has the smaller IC50 number. Which is it? Answer by stating the label of the chosen item.
P

---

targetUnderTest: Muscarinic acetylcholine receptor M1 (Rattus norvegicus, UniProt P08482)
Sequence (P08482 whole entry): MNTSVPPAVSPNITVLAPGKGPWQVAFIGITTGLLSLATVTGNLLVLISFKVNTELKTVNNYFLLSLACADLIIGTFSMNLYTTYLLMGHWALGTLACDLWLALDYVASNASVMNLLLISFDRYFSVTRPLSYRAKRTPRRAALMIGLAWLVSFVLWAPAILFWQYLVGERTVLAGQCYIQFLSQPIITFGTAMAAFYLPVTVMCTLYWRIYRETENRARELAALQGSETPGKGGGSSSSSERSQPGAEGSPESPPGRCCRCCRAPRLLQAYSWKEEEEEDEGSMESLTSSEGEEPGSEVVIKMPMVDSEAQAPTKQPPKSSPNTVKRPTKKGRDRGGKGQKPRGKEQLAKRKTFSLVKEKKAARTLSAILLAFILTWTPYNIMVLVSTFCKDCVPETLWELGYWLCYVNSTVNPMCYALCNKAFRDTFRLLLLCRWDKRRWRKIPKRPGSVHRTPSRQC
testMethodNotes: In vitro binding affinity against muscarinic acetylcholine receptor M1 from rat cerebral cortex, using [3H]oxotremorine-M (Oxo-M) as radioligand
pIC50: −log10 of the molar value.
endpointLabel: pIC50

{"molecule": "CCCCCCCSc1nsnc1C1=CCCN(C)C1.O=C(O)C(=O)O", "pIC50": 8.52}
{"molecule": "CN1CCC=C(c2cnsn2)C1", "pIC50": 8.70}
{"molecule": "CCCCCCS(=O)(=O)c1nsnc1C1=CCCN(C)C1", "pIC50": 7.54}
{"molecule": "CCCCCCNc1nsnc1C1=CCCN(C)C1", "pIC50": 7.22}
{"molecule": "CCCCSc1nsnc1C1=CCCN(C)C1.O=C(O)C(=O)O", "pIC50": 8.77}
{"molecule": "CCC(C)CCOc1nsnc1C1=CCCN(C)C1.O=C(O)/C=C/C(=O)O (stereo not drawn)", "pIC50": 8.00}
{"molecule": "CCCCCCOc1nonc1C1=CCCN(C)C1", "pIC50": 7.08}
{"molecule": "C[N+](C)(C)CC#CCOC(=O)Nc1cccc(Cl)c1.[Cl-]", "pIC50": 6.45}

(P) CCCCC(C)Oc1nsnc1C1=CCCN(C)C1.O=C(O)/C=C/C(=O)O (stereo not drawn)
(Q) CCCCCC[S+]([O-])c1nsnc1C1=CCCN(C)C1 (stereo not drawn)
(R) COc1nsnc1C1=CCCN(C)C1.O=C(O)C(=O)O
(S) CCCSc1nsnc1C1=CCCN(C)C1.O=C(O)C(=O)O
(T) CCCOc1nsnc1C1=CCCN(C)C1.O=C(O)C(=O)O
Please put the entries in order of rising pIC50. Order the labels as requested and list them.
Q, R, P, T, S
